TARGET_ENTITY: xanthine oxidase (XO) (Bos taurus, UniProt P80457)
Construct: purchased Sigma-Aldrich; host or cells: buttermilk
Sequence (P80457 whole entry): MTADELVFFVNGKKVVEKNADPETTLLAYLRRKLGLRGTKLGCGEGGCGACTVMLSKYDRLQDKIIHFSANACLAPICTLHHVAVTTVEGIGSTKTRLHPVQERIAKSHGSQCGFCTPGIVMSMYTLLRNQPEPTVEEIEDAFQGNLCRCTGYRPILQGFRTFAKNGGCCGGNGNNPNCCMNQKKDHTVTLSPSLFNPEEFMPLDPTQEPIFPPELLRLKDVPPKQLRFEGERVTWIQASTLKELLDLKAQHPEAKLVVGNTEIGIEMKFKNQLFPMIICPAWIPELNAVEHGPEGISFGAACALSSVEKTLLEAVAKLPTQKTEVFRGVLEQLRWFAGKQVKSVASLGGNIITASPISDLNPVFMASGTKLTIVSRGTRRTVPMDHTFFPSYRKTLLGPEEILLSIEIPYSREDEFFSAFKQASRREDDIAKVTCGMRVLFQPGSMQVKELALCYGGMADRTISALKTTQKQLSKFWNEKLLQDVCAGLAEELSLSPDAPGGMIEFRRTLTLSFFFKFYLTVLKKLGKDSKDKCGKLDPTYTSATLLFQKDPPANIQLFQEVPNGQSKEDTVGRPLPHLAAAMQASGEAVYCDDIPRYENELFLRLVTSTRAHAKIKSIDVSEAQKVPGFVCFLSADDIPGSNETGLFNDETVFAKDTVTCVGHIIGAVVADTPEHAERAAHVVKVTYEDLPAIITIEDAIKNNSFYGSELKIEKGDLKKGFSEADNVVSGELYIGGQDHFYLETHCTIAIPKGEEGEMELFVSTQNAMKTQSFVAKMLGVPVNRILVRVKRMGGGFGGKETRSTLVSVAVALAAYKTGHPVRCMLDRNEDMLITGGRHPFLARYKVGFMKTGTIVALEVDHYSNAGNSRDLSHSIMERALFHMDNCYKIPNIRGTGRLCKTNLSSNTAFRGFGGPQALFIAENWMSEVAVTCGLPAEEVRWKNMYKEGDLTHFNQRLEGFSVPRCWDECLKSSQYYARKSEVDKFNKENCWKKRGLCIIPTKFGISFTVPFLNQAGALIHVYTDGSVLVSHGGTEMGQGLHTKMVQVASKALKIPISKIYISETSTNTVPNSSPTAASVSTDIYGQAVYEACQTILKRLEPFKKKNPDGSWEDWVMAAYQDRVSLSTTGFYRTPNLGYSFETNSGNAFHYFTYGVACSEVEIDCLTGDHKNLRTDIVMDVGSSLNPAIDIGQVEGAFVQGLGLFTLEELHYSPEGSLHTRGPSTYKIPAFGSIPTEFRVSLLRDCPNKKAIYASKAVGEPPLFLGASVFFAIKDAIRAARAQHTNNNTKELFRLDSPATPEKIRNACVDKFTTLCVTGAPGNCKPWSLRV
EXPERIMENTAL_DETAILS: Lineweaver-Burk kinetic study of xanthine oxidase inhibition
Format: biochemical
CONDITION_CONTEXT: 7 at 20 μM; xanthine as substrate
OBSERVED_PROPERTY: pKi
Here pKi is given on a logarithmic scale as minus log10 of the concentration in mol/L.

## Task API: value(readout=pKi, system=xanthine oxidase (XO) (Bos taurus, UniProt P80457)) for record `COc1c(O)cc2oc(-c3ccc(O)c(O)c3)cc(=O)c2c1O`
## Result 5.05

###

TARGET_ENTITY: xanthine oxidase (XO) (Bos taurus, UniProt P80457)
Construct: purchased Sigma-Aldrich; host or cells: buttermilk
EXPERIMENTAL_DETAILS: Lineweaver-Burk kinetic study of xanthine oxidase inhibition
Assay type: biochemical
CONDITION_CONTEXT: 7 at 5 μM; xanthine as substrate
OBSERVED_PROPERTY: Ki
Hey, just the number and the unit after it is fine.

## Task Quick check: Ki of `COc1c(O)cc2oc(-c3ccc(O)c(O)c3)cc(=O)c2c1O` ?
## Result 4.48 µM

Cited source: paper PMC4129175
